DETAILS: in 1,4-dioxane, 298.15 K
RECORDED_ENDPOINT: solubility (mole fraction)
Form field (numeric): enter value without unit.

Task: State its solubility (mole fraction): O=C(O)c1cccnc1Cl
Result: 0.012

====

DETAILS: in 1,4-dioxane, 308.15 K
RECORDED_ENDPOINT: solubility (mole fraction)

Task: State its solubility (mole fraction): O=C(O)c1cccnc1Cl
Result: 0.0155

====

DETAILS: in DMF, 313.15 K
RECORDED_ENDPOINT: solubility (mole fraction)

Task: State its solubility (mole fraction): O=C(O)c1cccnc1Cl
Result: 0.367

====

DETAILS: in isopropanol, 303.15 K
RECORDED_ENDPOINT: solubility (mole fraction)
Form field (numeric): enter value without unit.

Task: State its solubility (mole fraction): O=C(O)c1cccnc1Cl
Result: 0.0113

====

DETAILS: in methanol, 283.15 K
RECORDED_ENDPOINT: solubility (mole fraction)
Form field (numeric): enter value without unit.

Task: State its solubility (mole fraction): O=C(O)c1cccnc1Cl
Result: 0.00347

====

DETAILS: in DMF, 278.15 K
RECORDED_ENDPOINT: solubility (mole fraction)

Task: State its solubility (mole fraction): O=C(O)c1cccnc1Cl
Result: 0.149

====

DETAILS: in n-propanol, 298.15 K
RECORDED_ENDPOINT: solubility (mole fraction)
Form field (numeric): enter value without unit.

Task: State its solubility (mole fraction): O=C(O)c1cccnc1Cl
Result: 0.011

====

DETAILS: in DMF, 298.15 K
RECORDED_ENDPOINT: solubility (mole fraction)
Form field (numeric): enter value without unit.

Task: State its solubility (mole fraction): O=C(O)c1cccnc1Cl
Result: 0.26

====

DETAILS: in n-propanol, 283.15 K
RECORDED_ENDPOINT: solubility (mole fraction)
Form field (numeric): enter value without unit.

Task: State its solubility (mole fraction): O=C(O)c1cccnc1Cl
Result: 0.00667

====

DETAILS: in ethanol, 283.15 K
RECORDED_ENDPOINT: solubility (mole fraction)
Form field (numeric): enter value without unit.

Task: State its solubility (mole fraction): O=C(O)c1cccnc1Cl
Result: 0.00461

====

DETAILS: in NMP, 293.15 K
RECORDED_ENDPOINT: solubility (mole fraction)
Form field (numeric): enter value without unit.

Task: State its solubility (mole fraction): O=C(O)c1cccnc1Cl
Result: 0.328

====

DETAILS: in NMP, 303.15 K
RECORDED_ENDPOINT: solubility (mole fraction)

Task: State its solubility (mole fraction): O=C(O)c1cccnc1Cl
Result: 0.397

====

DETAILS: in ethyl acetate, 273.15 K
RECORDED_ENDPOINT: solubility (mole fraction)
Form field (numeric): enter value without unit.

Task: State its solubility (mole fraction): O=C(O)c1cccnc1Cl
Result: 0.0138

====

DETAILS: in DMF, 283.15 K
RECORDED_ENDPOINT: solubility (mole fraction)
Form field (numeric): enter value without unit.

Task: State its solubility (mole fraction): O=C(O)c1cccnc1Cl
Result: 0.175

====

DETAILS: in water, 303.15 K
RECORDED_ENDPOINT: solubility (mole fraction)
Form field (numeric): enter value without unit.

Task: State its solubility (mole fraction): O=C(O)c1cccnc1Cl
Result: 0.000191

====

DETAILS: in water, 278.15 K
RECORDED_ENDPOINT: solubility (mole fraction)
Form field (numeric): enter value without unit.

Task: State its solubility (mole fraction): O=C(O)c1cccnc1Cl
Result: 0.000104

Provenance of the data: BigSolDB 2.1
